Cited source: ChEMBL document CHEMBL1126278

Tested on: HEL
Experiment: Inhibitory effect on replication of DNA virus VZV (YS) on HEL cell line.
Format: functional, cell-based
Conditions: Homo sapiens
Measurement name: log10 of IC50 (log10 of the value in mg/L)

{"Compound": "CSCC1=C[C@@H](n2cnc3c(N)ncnc32)[C@H](O)[C@@H]1O", "log10 of IC50": 0.30}
{"Compound": "Nc1ncnc2c1ncn2[C@@H]1C=C(CF)[C@@H](O)[C@H]1O", "log10 of IC50": 2.18}
{"Compound": "C[C@@H](O)C1=C[C@@H](n2cnc3c(N)ncnc32)[C@H](O)[C@@H]1O", "log10 of IC50": 1.81}
{"Compound": "Nc1ncnc2c1ncn2[C@@H]1C=C(CCl)[C@@H](O)[C@H]1O", "log10 of IC50": 0.30}
{"Compound": "COCC1=C[C@@H](n2cnc3c(N)ncnc32)[C@H](O)[C@@H]1O", "log10 of IC50": 2.48}
{"Compound": "CC1=C[C@@H](n2cnc3c(N)ncnc32)[C@H](O)[C@@H]1O", "log10 of IC50": 0.30}
{"Compound": "Nc1ncnc2c1ncn2[C@@H]1C=C(CO)[C@@H](O)[C@H]1O [NEOPLANOCIN A]", "log10 of IC50": 0.70}
